# Experiment Summary: Pharmacokinetics and absolute bioavailability of five compounds after oral and i.v. administration (UHPLC-MS/MS)
# Assay type: in vivo
# Experimental Parameters: SD, in vivo; rat, oral administration of pure compound; A5 7.40, A6 11.60, DSS 16.00, TFSA 50.00, TMCA 3.11 mg/kg; n = 6; read-out: Tmax
Quantity Name: Tmax (min)
Kindly provide the numeric value in min only, without the unit symbol.

Ask: Report Tmax for COc1cc(C=CC(=O)O)cc(OC)c1OC [TMCA, 3,4,5-trimethoxycinnamic acid] please.
Reply: 15

###

# Experiment Summary: Pharmacokinetics and absolute bioavailability of five compounds after oral and i.v. administration (UHPLC-MS/MS)
# Format: in vivo
# Experimental Parameters: SD, in vivo; rat, oral administration of pure compound; A5 7.40, A6 11.60, DSS 16.00, TFSA 50.00, TMCA 3.11 mg/kg; n = 6
Quantity Name: AUC(0-t) (ng·h/mL)
Kindly provide the numeric value in ng·h/mL only, without the unit symbol.

Ask: Report AUC(0-t) for COc1cc(C=CC(=O)O)cc(OC)c1OC [TMCA, 3,4,5-trimethoxycinnamic acid] please.
Reply: 968

###

# Experiment Summary: Pharmacokinetics of five components in rat plasma after oral administration of RPT, LPT and HPT extracts (UHPLC-MS/MS)
# Experimental Parameters: male, SD, in vivo, 1.9 g/kg, rat plasma, oral HPT extract equivalent to 1.9 g/kg of RPT extract, mean ± SD, n = 6, read-out: t1/2 (converted)
Quantity Name: half-life (h)
Kindly provide the numeric value in h only, without the unit symbol.

Ask: Report half-life for COc1cc(C=CC(=O)O)cc(OC)c1OC [TMCA, 3,4,5-trimethoxycinnamic acid] please.
Reply: 3.73

###

# Experiment Summary: Pharmacokinetics of five components in rat plasma after oral administration of RPT, LPT and HPT extracts (UHPLC-MS/MS)
# Experimental Parameters: male, SD, in vivo, 1.9 g/kg, rat plasma, oral LPT extract equivalent to 1.9 g/kg of RPT extract, mean ± SD, n = 6, read-out: AUC0-∞
Quantity Name: AUC(0-inf)

Ask: Report AUC(0-inf) for COc1cc(C=CC(=O)O)cc(OC)c1OC please.
Reply: 173 ng·h/mL

###

# Experiment Summary: Stability of the five analytes in rat plasma
# Assay type: in vitro ADME
# Experimental Parameters: rat, 24 h, 2 ng/mL
Auto-sampler stability, Mean values for the compounds below.
Kindly provide the numeric value in % only, without the unit symbol.

Below, 3 compounds whose answers are already recorded.
Compound	Quantity Name	Measured Number
COc1cc(/C=C/C(=O)O[C@H]2[C@H](O)[C@@H](CO)O[C@@]2(CO)O[C@H]2O[C@H](COC(=O)c3ccc(O)cc3)[C@@H](O)[C@H](O)[C@H]2O)cc(OC)c1OC [TFSA, tenuifoliside A]	Auto-sampler stability, Mean	96.6
COc1cc(/C=C/C(=O)O[C@H]2[C@H](O)[C@@H](CO)O[C@@]2(CO)O[C@H]2O[C@H](CO)[C@@H](O)[C@H](O)[C@H]2O)ccc1O	Auto-sampler stability, Mean	89.4
COc1cc(C=CC(=O)OCC2OC(OC3(CO)OC(CO)C(O)C3OC(=O)C=Cc3cc(OC)c(O)c(OC)c3)C(O)C(O)C2O)cc(OC)c1O (stereo not shown)	Auto-sampler stability, Mean	92.1

--- query ---
Ask: Report Auto-sampler stability, Mean for COc1cc(C=CC(=O)OC2C(O)C(CO)OC2(CO)OC2OC(CO)C(O)C(O)C2O)cc(OC)c1O (stereo not shown) please.
Reply: 87.5

###

# Experiment Summary: Pharmacokinetics of five components in rat plasma after oral administration of RPT, LPT and HPT extracts (UHPLC-MS/MS)
# Experimental Parameters: male, SD, in vivo, 1.9 g/kg, rat plasma, oral HPT extract equivalent to 1.9 g/kg of RPT extract, mean ± SD, n = 6, read-out: AUC0-t
# Experimental: A Thermo Hypersil Gold C18 column (3.0 × 100 mm, i.d.; 3 μm) was used for chromatographic separation. An aqueous 10 mM ammonium acetate solution (A) and acetonitrile (B) were selected as the mobile phase components. […] Male SD rats were randomly divided into four groups (n = 6 in each group), including the RPT group, LPT group, HPT group and control group. […] The separated supernatant samples were preserved at −80 °C until they were measured. […]
Quantity Name: AUC(0-t) (ng·h/mL)
Kindly provide the numeric value in ng·h/mL only, without the unit symbol.

Ask: Report AUC(0-t) for COc1cc(C=CC(=O)O)cc(OC)c1OC [TMCA, 3,4,5-trimethoxycinnamic acid] please.
Reply: 124

###

# Experiment Summary: Pharmacokinetics of five components in rat plasma after oral administration of RPT, LPT and HPT extracts (UHPLC-MS/MS)
# Experimental Parameters: male, SD, in vivo, 1.9 g/kg, rat plasma, oral HPT extract equivalent to 1.9 g/kg of RPT extract, mean ± SD, n = 6, read-out: Cmax
Quantity Name: Cmax (ng/mL)
Kindly provide the numeric value in ng/mL only, without the unit symbol.

Ask: Report Cmax for COc1cc(C=CC(=O)O)cc(OC)c1OC please.
Reply: 63.2

###

Long-term stability, Mean values for the molecules below.
# Experiment Summary: Stability of the five analytes in rat plasma
# Type: in vitro ADME
# Experimental Parameters: rat, 4 weeks, 1600 ng/mL
Kindly provide the numeric value in % only, without the unit symbol.

Below, 2 molecules whose answers are already recorded.
Molecule	Long-term stability, Mean, %
COc1cc(C=CC(=O)OC2C(O)C(CO)OC2(CO)OC2OC(CO)C(O)C(O)C2O)cc(OC)c1O (stereo not shown) [A6, Sibiricose A6]	96.5
COc1cc(C=CC(=O)OCC2OC(OC3(CO)OC(CO)C(O)C3OC(=O)C=Cc3cc(OC)c(O)c(OC)c3)C(O)C(O)C2O)cc(OC)c1O (stereo not shown) [DSS, 3,6′-disinapoyl sucrose]	93.2

Ask: Report Long-term stability, Mean for COc1cc(/C=C/C(=O)O[C@H]2[C@H](O)[C@@H](CO)O[C@@]2(CO)O[C@H]2O[C@H](CO)[C@@H](O)[C@H](O)[C@H]2O)ccc1O [A5, Sibiricose A5] please.
Reply: 96.6

Ask: Try the molecule COc1cc(/C=C/C(=O)O[C@H]2[C@H](O)[C@@H](CO)O[C@@]2(CO)O[C@H]2O[C@H](COC(=O)c3ccc(O)cc3)[C@@H](O)[C@H](O)[C@H]2O)cc(OC)c1OC [TFSA, tenuifoliside A]
Reply: 96.2

###

Tmax values for the molecules below.
# Experiment Summary: Pharmacokinetics and absolute bioavailability of five compounds after oral and i.v. administration (UHPLC-MS/MS)
# Type: in vivo
# Experimental Parameters: SD, rat, in vivo, po, Tmax
Kindly provide the numeric value in min only, without the unit symbol.

Below, 2 molecules whose answers are already recorded.
Molecule	Measurement Unit	Tmax
COc1cc(C=CC(=O)OC2C(O)C(CO)OC2(CO)OC2OC(CO)C(O)C(O)C2O)cc(OC)c1O (stereo not shown) [A6, Sibiricose A6]	min	30
COc1cc(C=CC(=O)OCC2OC(OC3(CO)OC(CO)C(O)C3OC(=O)C=Cc3cc(OC)c(O)c(OC)c3)C(O)C(O)C2O)cc(OC)c1O (stereo not shown) [DSS, 3,6′-disinapoyl sucrose]	min	10.2

--- query ---
Ask: Report Tmax for COc1cc(/C=C/C(=O)O[C@H]2[C@H](O)[C@@H](CO)O[C@@]2(CO)O[C@H]2O[C@H](CO)[C@@H](O)[C@H](O)[C@H]2O)ccc1O [A5, Sibiricose A5] please.
Reply: 15

###

# Experiment Summary: Stability of the five analytes in rat plasma
# Type: in vitro ADME
# Experimental Parameters: rat, 5 h, 1600 ng/mL
Short-term stability, Mean values for the compounds below.

Below, 3 compounds whose answers are already recorded.
Compound	Quantity Name	Result
COc1cc(/C=C/C(=O)O[C@H]2[C@H](O)[C@@H](CO)O[C@@]2(CO)O[C@H]2O[C@H](COC(=O)c3ccc(O)cc3)[C@@H](O)[C@H](O)[C@H]2O)cc(OC)c1OC [TFSA, tenuifoliside A]	Short-term stability, Mean	98.5%
COc1cc(C=CC(=O)OCC2OC(OC3(CO)OC(CO)C(O)C3OC(=O)C=Cc3cc(OC)c(O)c(OC)c3)C(O)C(O)C2O)cc(OC)c1O (stereo not shown)	Short-term stability, Mean	98.1%
COc1cc(/C=C/C(=O)O[C@H]2[C@H](O)[C@@H](CO)O[C@@]2(CO)O[C@H]2O[C@H](CO)[C@@H](O)[C@H](O)[C@H]2O)ccc1O	Short-term stability, Mean	98.3%

--- query ---
Ask: Report Short-term stability, Mean for COc1cc(C=CC(=O)OC2C(O)C(CO)OC2(CO)OC2OC(CO)C(O)C(O)C2O)cc(OC)c1O (stereo not shown) please.
Reply: 97.4%

###

# Experiment Summary: Pharmacokinetics and absolute bioavailability of five compounds after oral and i.v. administration (UHPLC-MS/MS)
# Type: in vivo
# Experimental Parameters: SD, rat, in vivo, iv
Quantity Name: AUCΔ0-∞ (dose-normalized) (ng·h/mL)
Kindly provide the numeric value in ng·h/mL only, without the unit symbol.

Molecule	Measurement Unit	AUCΔ0-∞ (dose-normalized)
COc1cc(C=CC(=O)OC2C(O)C(CO)OC2(CO)OC2OC(CO)C(O)C(O)C2O)cc(OC)c1O (stereo not shown) [A6, Sibiricose A6]	ng·h/mL	299.16
COc1cc(/C=C/C(=O)O[C@H]2[C@H](O)[C@@H](CO)O[C@@]2(CO)O[C@H]2O[C@H](CO)[C@@H](O)[C@H](O)[C@H]2O)ccc1O [A5, Sibiricose A5]	ng·h/mL	368.34

Ask: Report AUCΔ0-∞ (dose-normalized) for COc1cc(/C=C/C(=O)O[C@H]2[C@H](O)[C@@H](CO)O[C@@]2(CO)O[C@H]2O[C@H](COC(=O)c3ccc(O)cc3)[C@@H](O)[C@H](O)[C@H]2O)cc(OC)c1OC [TFSA, tenuifoliside A] please.
Reply: 163.80

Ask: Try the molecule COc1cc(C=CC(=O)OCC2OC(OC3(CO)OC(CO)C(O)C3OC(=O)C=Cc3cc(OC)c(O)c(OC)c3)C(O)C(O)C2O)cc(OC)c1O (stereo not shown) [DSS, 3,6′-disinapoyl sucrose]
Reply: 107.00
